Biological target: T1, human recombinant soluble CD73 protein (human, UniProt P21589 27-547)
T1 construct: also called huCD73; rhCD73
T1 sequence: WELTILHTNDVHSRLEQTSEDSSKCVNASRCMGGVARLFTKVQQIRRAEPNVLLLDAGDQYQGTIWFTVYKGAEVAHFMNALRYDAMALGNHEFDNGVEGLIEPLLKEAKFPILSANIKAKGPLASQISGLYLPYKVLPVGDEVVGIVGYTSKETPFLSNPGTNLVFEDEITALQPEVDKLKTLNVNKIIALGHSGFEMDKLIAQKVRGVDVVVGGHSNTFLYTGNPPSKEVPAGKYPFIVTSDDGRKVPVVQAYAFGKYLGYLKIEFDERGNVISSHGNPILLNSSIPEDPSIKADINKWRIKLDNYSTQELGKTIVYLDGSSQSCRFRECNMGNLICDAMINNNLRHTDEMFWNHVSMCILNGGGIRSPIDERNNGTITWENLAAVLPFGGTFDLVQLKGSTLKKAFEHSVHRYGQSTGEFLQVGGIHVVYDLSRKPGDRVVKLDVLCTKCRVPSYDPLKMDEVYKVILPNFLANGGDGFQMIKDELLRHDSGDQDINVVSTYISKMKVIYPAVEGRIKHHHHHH
Test: SPR, Ab captured on Protein A, soluble huCD73 as analyte
Kd values for the binders below.
measured-endpoint: Kd

# binder, measured-endpoint, reported-result
measured = [
    ("H3L2 (antibody, human IgG1, V domains shown) VH: QIQLVQSGAEVKKPGASVKVSCKASGYAFTSYNMYWVRQAPGQSLEWIGYIDPYNGGSSYNLTFKGKATITVDKSASTAYMELSSLRSEDTAVYYCARGYGNYKAWFAYWGQGTLVTVSS VL: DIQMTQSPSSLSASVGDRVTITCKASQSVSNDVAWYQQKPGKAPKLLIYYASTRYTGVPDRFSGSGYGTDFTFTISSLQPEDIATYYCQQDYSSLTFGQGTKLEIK", "Kd", "1.4 nM"),
    ("chimeric parental 3C12 antibody (antibody, human IgG1, V domains shown, also called HPLP; parental antibody 3C12) VH: QIQLQQSGPELVKPGASVKVSCKASGYAFASYNMNWVKQSHGKSLDWIGYIDPYNGGSSYNLTFKGKATLTVDKSSTTAYMHLNSLTSEDSAVYYCARGYGNYKAWFAYWGQGTLVTVSA VL: DVVMTQTPKFLLVSAGDRVTITCKASQSVSNDVAWYQQKPGQSPKLLIYYASTRYTGVPDRFTGSGYGTDFTFTISTVQAEDLAVYFCQQDYSSLTFGAGTKLELK", "Kd", "0.68 nM"),
    ("H4L3 (antibody, human IgG1, V domains shown) VH: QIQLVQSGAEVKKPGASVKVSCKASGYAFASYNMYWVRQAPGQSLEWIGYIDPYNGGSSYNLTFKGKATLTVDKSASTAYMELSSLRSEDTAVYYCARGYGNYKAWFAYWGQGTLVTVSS VL: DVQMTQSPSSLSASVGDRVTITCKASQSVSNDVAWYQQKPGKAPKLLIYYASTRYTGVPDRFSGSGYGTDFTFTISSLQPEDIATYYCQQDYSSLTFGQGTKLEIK", "Kd", "0.7 nM"),
]
